Measured target: Taq DNA polymerase (Thermus aquaticus, UniProt P19821 P19821:1-832)
Sequence (P19821 whole entry, one chain of several): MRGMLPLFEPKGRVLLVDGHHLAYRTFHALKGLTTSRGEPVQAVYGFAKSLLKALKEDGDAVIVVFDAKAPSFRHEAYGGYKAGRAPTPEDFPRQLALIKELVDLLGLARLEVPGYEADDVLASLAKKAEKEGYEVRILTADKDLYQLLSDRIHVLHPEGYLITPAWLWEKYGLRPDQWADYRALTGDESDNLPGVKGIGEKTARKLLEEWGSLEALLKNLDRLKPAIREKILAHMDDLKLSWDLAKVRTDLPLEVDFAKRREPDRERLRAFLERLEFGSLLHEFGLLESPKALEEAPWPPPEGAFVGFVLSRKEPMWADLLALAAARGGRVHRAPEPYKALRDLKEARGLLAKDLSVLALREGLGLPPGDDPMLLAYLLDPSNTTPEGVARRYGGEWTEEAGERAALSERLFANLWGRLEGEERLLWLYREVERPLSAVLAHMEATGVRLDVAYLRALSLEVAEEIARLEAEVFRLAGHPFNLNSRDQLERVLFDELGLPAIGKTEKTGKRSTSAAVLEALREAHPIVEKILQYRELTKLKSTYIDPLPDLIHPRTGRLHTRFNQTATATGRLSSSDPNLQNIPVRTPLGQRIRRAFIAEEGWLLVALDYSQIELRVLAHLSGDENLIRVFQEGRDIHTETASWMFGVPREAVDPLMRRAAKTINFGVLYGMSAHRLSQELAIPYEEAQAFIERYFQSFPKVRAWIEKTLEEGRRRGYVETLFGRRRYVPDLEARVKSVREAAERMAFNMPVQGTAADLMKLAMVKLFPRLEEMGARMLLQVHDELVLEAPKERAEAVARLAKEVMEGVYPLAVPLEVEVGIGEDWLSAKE
Procedure text: FP filter; 55C; IT50 52C
Test context: tags: rTaq, 94 kDa, Roche Molecular Systems; label: end-labeled
Property name: pKd
The meaning of pKd here: minus log10 of the concentration in molar units.

Qu. Query: pKd; subject: ligand 36 (Taq selection) (ssDNA) DNA: TTCTCGGTTGGTCTCTGGCGGAGCAGAAGCAAGAATCATTCTTAGCGTTTTGATTCTTGTGTATGATTCGCTTTTCCC
Ans. 10.51
